Here, each record is paired with measured pKi data.
# target under test: 5-hydroxytryptamine receptor 1D (Homo sapiens)
# Sequence (P28221 whole entry): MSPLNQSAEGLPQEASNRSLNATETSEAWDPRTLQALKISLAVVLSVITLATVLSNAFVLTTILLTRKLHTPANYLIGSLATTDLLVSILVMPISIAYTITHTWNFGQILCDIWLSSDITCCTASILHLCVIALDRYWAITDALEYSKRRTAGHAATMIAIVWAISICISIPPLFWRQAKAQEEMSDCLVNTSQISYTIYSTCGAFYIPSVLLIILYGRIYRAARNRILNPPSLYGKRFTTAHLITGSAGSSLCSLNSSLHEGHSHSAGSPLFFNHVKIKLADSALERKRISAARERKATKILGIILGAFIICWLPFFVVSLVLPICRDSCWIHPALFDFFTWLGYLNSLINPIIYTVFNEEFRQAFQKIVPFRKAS
Recall that pKi is obtained by taking minus log10 of the concentration measured in molar.

CN1CCC[C@@H]1Cc1c[nH]c2ccc(C3=CCN(C(=S)NC4CCCCC4)CC3)cc12    8.70
COc1ccc(NC(=S)N2CC=C(c3ccc4[nH]cc(C[C@H]5CCCN5C)c4c3)CC2)cc1    9.34
Cc1ccc(NC(=S)N2CC=C(c3ccc4[nH]cc(C[C@H]5CCCN5C)c4c3)CC2)cc1    9.42
Cc1ccc(S(=O)(=O)N2CC=C(c3ccc4[nH]cc(C[C@H]5CCCN5C)c4c3)CC2)cc1    9.10
Cc1ccc(NC(=O)N2CC=C(c3ccc4[nH]cc(C[C@H]5CCCN5C)c4c3)CC2)cc1    9.51

pKi on 5-hydroxytryptamine receptor 1D (Homo sapiens) for "CN(C)CCc1c[nH]c2ccc(C3=CCN(C)CC3)cc12" is 8.10

pKi on 5-hydroxytryptamine receptor 1D (Homo sapiens) for "CN1CCC[C@@H]1Cc1c[nH]c2ccc(C3=CCN(/C(S)=N/c4ccc(Cl)cc4)CC3)cc12" is 9.25

* * *

# target under test: UniProtKB P28222
# experiment summary: Selectivity ratio against cloned human 5-HT1B receptor to that of h5-HT1D receptor
// label = Satisfied if Selectivity is not less than 8, otherwise Not satisfied

Here are 4 compounds together with their reported answers.
CN1CCC[C@@H]1Cc1c[nH]c2ccc(C3=CCN(S(=O)(=O)c4cccc5ccccc45)CC3)cc12    Satisfied
CN1CCC[C@@H]1Cc1c[nH]c2ccc(C3=CCN(C(=O)Nc4ccc(Cl)cc4)CC3)cc12    Satisfied
CN1CCC[C@@H]1Cc1c[nH]c2ccc(C3=CCN(C(=O)NC45C[C@H]6C[C@@H](C4)C[C@@H](C5)C6)CC3)cc12    Not satisfied
CN1CCC[C@@H]1Cc1c[nH]c2ccc(C3=CCN(C(=O)Nc4cccc5ccccc45)CC3)cc12    Satisfied

Lookup: Answer whether Selectivity of "COc1ccc(NC(=S)N2CC=C(c3ccc4[nH]cc(C[C@H]5CCCN5C)c4c3)CC2)cc1" is greater than or equal to 8.
Found: Not satisfied

Lookup: Answer whether Selectivity of "CN1CCC[C@@H]1Cc1c[nH]c2ccc(C3=CCN(/C(S)=N/c4ccccc4)CC3)cc12" is greater than or equal to 8.
Found: Satisfied

Lookup: Answer whether Selectivity of "CN1CCC[C@@H]1Cc1c[nH]c2ccc(C3=CCN(/C(S)=N/c4cccc5ccccc45)CC3)cc12" is greater than or equal to 8.
Found: Not satisfied

Lookup: Answer whether Selectivity of "Cc1ccc(S(=O)(=O)N2CC=C(c3ccc4[nH]cc(C[C@H]5CCCN5C)c4c3)CC2)cc1" is greater than or equal to 8.
Found: Satisfied

Lookup: Answer whether Selectivity of "Cc1ccc(NC(=O)N2CC=C(c3ccc4[nH]cc(C[C@H]5CCCN5C)c4c3)CC2)cc1" is greater than or equal to 8.
Found: Satisfied

* * *

Observed Ki for UniProtKB P28222, reported per entry below.
Hi! Could you send only the number? It should be in nM, unit omitted.

Ki on UniProtKB P28222 for "CN1CCC[C@@H]1Cc1c[nH]c2ccc(C3=CCN(C(=S)Nc4ccccc4)CC3)cc12" is 5.8

Ki on UniProtKB P28222 for "CN1CCC[C@@H]1Cc1c[nH]c2ccc(C3=CCN(C(=O)Nc4cccc5ccccc45)CC3)cc12" is 3.8

Ki on UniProtKB P28222 for "CN1CCC[C@@H]1Cc1c[nH]c2ccc(C3=CCN(/C(S)=N/c4ccc(Cl)cc4)CC3)cc12" is 1.5

Ki on UniProtKB P28222 for "CN1CCC[C@@H]1Cc1c[nH]c2ccc(C3=CCN(C(=O)Nc4ccc(Cl)cc4)CC3)cc12" is 3.8

Ki on UniProtKB P28222 for "CN1CCC[C@@H]1Cc1c[nH]c2ccc(C3=CCN(C(=O)NC4CCCCC4)CC3)cc12" is 14
